Origin of values: PubChem BioAssay (Tox21)

- methodNotes: qHTS assay to identify small molecule antagonists of the retinoic acid receptor (RAR) signaling pathway (AID 1159552; also: % is scaled to controls: 0 for no effect and ±100 for the full control effect; nearly all actives have a fitted effect of over 50% in size)
- conditionInfo: C3RL4 RARE luciferase reporter, retinol-stimulated, 6 h; series mostly up to 92.4 µM
Results filed as inconclusive are left out. The source made the active and inactive calls. Calls follow the shape of the dose curve; as a rule, active = well fitted inhibition curve with a large enough effect in the repeat runs; inconclusive = weak or mixed curves, or effect the other way; inactive = no such curve, though single readings can be large or run the other way.
Choose the fitting class; nothing outside 1 (yes) = active, 0 (no) = inactive is accepted.

Past entries and their recorded results:
CCOC(=O)c1ccccc1C(=C1C=C(Br)C(=O)C(Br)=C1)c1cc(Br)c(O)c(Br)c1 : 0 (no)
O=C(CCCN1CC=C(n2c(=O)[nH]c3ccccc32)CC1)c1ccc(F)cc1 : 0 (no)
O=C1c2ccccc2C(=O)C1(O)O : 0 (no)
FC(F)(F)c1ccccc1Cl : 0 (no)
Cc1cccc(N(C)C(=S)Oc2ccc3c(c2)CCC3)c1 : 0 (no)

**Query** For CN(C)CCN1C(=O)c2ccccc2N(C)c2ccccc21 , what call appears in the results of this test?
**Result** 0 (no)

**Query** For CCCC(=O)C(=O)O , what call appears in the results of this test?
**Result** 0 (no)

###

- methodNotes: A CellTox Green Cytotoxicity Assay to monitor cytotoxicity in HepG2 cells - 16 hour (AID 1224876); also: nearly all actives have a fitted effect of over 45% in size
- conditionInfo: CellTox Green fluorescence; series mostly up to 76.8 µM
Records with an inconclusive call do not appear. The source made the active and inactive calls. Calls come from the whole dose curve; as a rule, active = well fitted activation curve with a large enough effect in the repeat runs; inconclusive = weak or mixed curves; inactive = flat fitted curve, though single readings scatter.
Choose the fitting class; nothing outside active, inactive is accepted.

CCC1NC(=O)c2cc(S(N)(=O)=O)c(Cl)cc2N1 (stereo unspecified) : inactive
Nc1ncnc2c1ncn2[C@H]1CC[C@@H](CO)O1 : inactive
CCCCCCCC/C=C\CCCCCCCCO : inactive
CC(C)(O)c1ccc(CNC(=O)c2cccnc2Oc2ccc3nonc3c2)cc1 : inactive

**Query** For CC1(C)[C@@H](OC(=O)CCC(=O)O)CC[C@]2(C)[C@H]3C(=O)C=C4[C@@H]5C[C@@](C)(C(=O)O)CC[C@]5(C)CC[C@@]4(C)[C@]3(C)CC[C@@H]12 , what call appears in the results of this test?
**Result** inactive

**Query** For Oc1cccc(Nc2ccccc2)c1 , what call appears in the results of this test?
**Result** inactive

**Query** For O[C@@H]1CO[C@H]2[C@@H]1OC[C@@H]2O , what call appears in the results of this test?
**Result** inactive

**Query** For Oc1ccc(Cl)c2cccnc12 , what call appears in the results of this test?
**Result** inactive

**Query** For Cc1cc(=O)c2c(O)c3c(O)cc(=O)c4c3c3c(cc(O)c1c23)C(C)(C)C=4O , what call appears in the results of this test?
**Result** active

**Query** For C=CC(=O)[O-].C=CC(=O)[O-].[Zn+2] , what call appears in the results of this test?
**Result** inactive

**Query** For CC(C)=CCC1C(=O)N(c2ccccc2)N(c2ccccc2)C1=O , what call appears in the results of this test?
**Result** inactive

###

- targetEntity: Glucocorticoid receptor (Homo sapiens)
- methodNotes: qHTS assay to identify small molecule agonists of the glucocorticoid receptor (GR) signaling pathway (AID 720691); also: % is scaled to controls: 0 for no effect and ±100 for the full control effect
- conditionInfo: GR-bla HeLa, beta-lactamase reporter ratio, 18 h; series mostly up to 62.4 µM
Inconclusive results are not listed. The source made the active and inactive calls. Calls follow the shape of the dose curve; as a rule, active = well fitted activation curve with a large enough effect in the signal ratio in the repeat runs (not every such curve was filed as active); inconclusive = weak or mixed curves, or effect the other way; inactive = no such curve, though single readings can be large or run the other way; the % refers to the signal ratio.
Choose the fitting class; nothing outside label 1 for active, label 0 for inactive is accepted.

CCOC(=O)c1ccc(C#Cc2ccc3c(c2)C(C)(C)CCS3)nc1 : label 0
Nc1cccc2c1CN(C1CCC(=O)NC1=O)C2=O (stereo not given) : label 0
CCC1CO1 (stereo not given) : label 0
Oc1ccc(Cl)c2cccnc12 : label 0

**Query** For CN1C(C(=O)Nc2ccccn2)=C(O)c2sccc2S1(=O)=O , what call appears in the results of this test?
**Result** label 0

**Query** For CC1(C)S[C@@H]2[C@H](NC(=O)C(c3ccccc3)S(=O)(=O)O)C(=O)N2[C@H]1C(=O)O (stereo not given in full) , what call appears in the results of this test?
**Result** label 0

**Query** For CC(CCC(=O)O)C(=O)O (stereo not given) , what call appears in the results of this test?
**Result** label 0
